Cited source for all entries: patent US11285135B2

# Test system: Phosphorylation of ERK½ in MIA PaCa-2 cells
# assay_comment: Phospho-ERK½ MSD Assay in MIA PaCa-2 cells
# Assay type: cell-based
# assay_context: MIA PaCa-2 cells; 4 hours compound treatment; 10 ng/mL EGF for 10 min; read-out: p-ERK IC50 (MIA PaCa-2)
experimental_endpoint: IC50

Use these answered entries as a reference point.
stdin: Observed IC50 on Phosphorylation of ERK½ in MIA PaCa-2 cells for C=CC(=O)N1CCN(c2snc3c(F)c(-c4cc(O)cc5ccccc45)c(Cl)cc23)CC1 (single isomer, unassigned) [Example 3-1-1] , please.
stdout: > 100 µM

stdin: Observed IC50 on Phosphorylation of ERK½ in MIA PaCa-2 cells for C=CC(=O)N1CCN(c2snc3c(F)c(-c4cc(O)cc5ccccc45)c(Cl)cc23)[C@@H](C)C1 (single isomer, unassigned) [Example 1-19-2] , please.
stdout: > 100 µM

Then there is this compound:
stdin: Observed IC50 on Phosphorylation of ERK½ in MIA PaCa-2 cells for C=CC(=O)N1CCN(c2nc(=O)n(-c3ccccc3C(C)C)c3cc(-c4c(C)ccc5[nH]ncc45)c(Cl)cc23)CC1 (single isomer, unassigned) [Example 11-1-1] , please.
stdout: 0.247 µM
